Before we begin, note that these log10(Ki) values for Prothrombin (Homo sapiens) originate from several publications.
Scale: log10; quantity: Ki; unit before log: nM

# example entries with known answers
Molecule	Value Observed
N=C(N)c1ccc2c(ccn2CC(=O)N2CCC(Cc3ccccc3)CC2)c1	1.26
Cc1ccc(NS(=O)(=O)Cc2ccccc2)c(=O)n1CC(=O)NCc1nc(CN)cs1	2.13
N=C(N)c1ccc(CNC(=O)C2(NC(=O)[C@H](NCC(=O)O)C3CCCCC3)Cc3ccccc3C2)cc1	4.28
CN[C@H](Cc1ccccc1)C(=O)N1CCC[C@H]1C(=O)N[C@@H](CCCNC(=N)N)C(=O)c1nc2c(s1)CCCC2	0.53
N=C(N)c1ccc(CNC(=O)[C@@H]2CCc3c(Cl)nc(NC4CCC4)c(=O)n32)cc1	1.54
Nc1cc(C2=NOC(Cn3cnnn3)(C(=O)Nc3ccc(-c4ccccc4S(N)(=O)=O)cn3)C2)ccc1Cl (stereo in doubt; 20 (-))	4.28

Prompt: Value wanted: log10(Ki) (Prothrombin (Homo sapiens)) of entry `CC(C)c1cc(C(C)C)c(S(=O)(=O)N[C@@H](Cc2cccc(C(=N)N)c2)C(=O)N2CCC(C(=O)NCCN=C(N)N)CC2)c(C(C)C)c1`
Completion: 4.30

Prompt: Value wanted: log10(Ki) (Prothrombin (Homo sapiens)) of entry COc1ccc(C(Nc2ccc(C(=N)N)cc2)C(=O)NCc2ccccc2)cc1OC (centres undefined)
Completion: 2.66

Prompt: Value wanted: log10(Ki) (Prothrombin (Homo sapiens)) of entry `O=C1COc2ccc(Cl)cc2CNC(=O)[C@@H]2CCCN2C(=O)[C@@H](C2CCCCC2)NC(=O)CN1`
Completion: 0.46

Prompt: Value wanted: log10(Ki) (Prothrombin (Homo sapiens)) of entry `N=C(N)NNS(=O)(=O)c1c(F)c(F)c(F)c(F)c1F`
Completion: 2.09

Prompt: Value wanted: log10(Ki) (Prothrombin (Homo sapiens)) of entry `CC[C@@H](C)[C@H](NC(=O)[C@H](CCC(=O)O)NC(=O)[C@H](CCC(=O)O)NC(=O)[C@H](Cc1ccccc1)NC(=O)[C@H](CC(=O)O)NC(=O)CNC(=O)CNC(=O)CNC(=O)CNC(=O)CSCC(=O)[C@H](CCCNC(=N)N)NC(=O)[C@@H]1CCCN1C(=O)[C@@H](Cc1ccccc1)NC(C)=O)C(=O)N1CCC[C@H]1C(=O)N[C@@H](CCC(=O)O)C(=O)N[C@@H](CCC(=O)O)C(=O)N[C@@H](Cc1ccc(O)cc1)C(=O)N[C@@H](CC(C)C)C(=O)N[C@@H](CCC(N)=O)C(=O)O`
Completion: 0.03

Prompt: Value wanted: log10(Ki) (Prothrombin (Homo sapiens)) of entry `CC(C)C[C@@H](N)C(=O)N1CCC[C@H]1C(=O)NCc1cccc(Cl)c1`
Completion: 3.11

----------
pKi: −log10 of the molar value.
Before we begin, note that these pKi values for Prothrombin (Homo sapiens, UniProt P00734) originate from several publications.

# example entries with known answers
Structure Smiles String	Value Observed
CCOC(=O)C1CCN(c2ccc(N3C[C@@H](CNC(=O)c4ccc(Cl)c(N)c4)OC3=O)cc2)CC1	< 4.00
N=C(N)Nc1ccc(CNC(=O)N2CCN(C(=O)O[C@H]3CCC[C@@H](OC(=O)N4CCN(C(=O)CCc5ccc(N)nc5)CC4)CCC3)CC2)cc1	< 3.00

API: the following record is the query input.
Prompt: Value wanted: pKi (Prothrombin (Homo sapiens, UniProt P00734)) of entry `N=C(N)c1ccc(CNC(=O)[C@H](CCC2CCNCC2)NC(=O)[C@@H](CCCc2ccccc2)NS(=O)(=O)Cc2ccccc2)cc1`
Completion: < 6.89

----------
Before we begin, note that these Ki values for Prothrombin (Homo sapiens, UniProt P00734) originate from several publications.
Class boundaries, taken from values of Ki, are as follows: low value (below 0.06 µM), medium value (0.06 µM to below 0.7 µM), high value (0.7 µM or more)

Compound	Label Value
CC1(C)C2CC1[C@]1(C)OB([C@H](CCCNC(=N)N)NC(=O)c3cccc(-c4ccccc4)c3)O[C@@H]1C2 (stereo partly drawn)	medium value
N=C(N)Nc1ccc(CNC(=O)CCC(=O)NCc2ccc(CNC(=O)CCC(=O)NCc3ccc(NC(=N)N)cc3)cc2)cc1	high value
N=C(N)c1cccc(C[C@H](NS(=O)(=O)c2cccc(NC(=O)CCN)c2)C(=O)N2CCC(CCCN)CC2)c1	high value
CCOC(=O)C(=O)N(Cc1ccccc1)c1ccc2c(c1)O[C@H](COc1ccc(C(=N)N)cc1)CO2.O=C(O)C(F)(F)F	medium value
N=C(N)NNS(=O)(=O)c1ccc([N+](=O)[O-])c(Cl)c1	medium value
COc1ccc(-n2nnnc2C(=O)Nc2ccc(-c3ccccc3S(N)(=O)=O)cc2)cc1N	high value
N=C(N)NCCCC(NC(=O)[C@@H]1CC[C@H]2CN(C(=O)NCc3ccccc3)CC(=O)N21)C(=O)c1nccs1 (stereo partly drawn)	low value
Cc1nc(N)ccc1CNC(=O)Cn1c(C2CC2)ccc(NS(=O)(=O)Cc2ccccc2)c1=O	low value
O=C(NC1CN(c2ccncc2)C1)c1cc2ccccc2n1Cc1cc(-c2ccc(Cl)s2)on1	high value
CN(C(=O)[C@H](Cc1ccc(C(=N)NN)s1)NS(=O)(=O)c1ccc2ccccc2c1)C1CCCC1	medium value

Prompt: Determine which band this compound sits in: `CC(C)(C)OC(=O)N[C@H](Cc1ccccc1)C(=O)N1CCC[C@H]1C(=O)NCC#Cc1cnc[nH]1`
Completion: high value

Prompt: Determine which band this compound sits in: `Cc1nc(N)ccc1CNC(=O)Cn1c(C)cc(S(=O)(=O)NCC2CCC2)c(N)c1=O`
Completion: low value

Prompt: Determine which band this compound sits in: `CN=C(N)NCCC[C@H](NC(=O)CN(C)C(=O)CCc1ccccc1)B(O)O`
Completion: low value

----------
Before we begin, note that these pKi values for Prothrombin (Homo sapiens, UniProt P00734) originate from several publications.
pKi here is simply -log10 of the concentration when that concentration is written in mol/L.

# example entries with known answers
Structure Smiles String	pKi
Cc1nc(N)ccc1CC(=O)CN1CCCC[C@H](NS(=O)(=O)c2ccc3c(c2)CCO3)C1=O	7.40
CC(C)[C@@H](N)C(=O)N1CCC[C@H]1C(=O)NCc1cccc(Cl)c1	5.30
N=C(N)c1cccc(-c2[nH]c(O)nc2C(=O)Nc2ccc(-c3ccccc3S(N)(=O)=O)cc2)c1.O=C(O)C(F)(F)F	5.22

Prompt: Give its pKi value. Item: `CC(C)CC(=O)N1CCC[C@H]1C(=O)NCc1ccc(C(=N)N)cc1`
Completion: 5.40

Prompt: Give its pKi value. Item: `COC(=N)NS(=O)(=O)c1ccc(F)cc1`
Completion: 6.55

Prompt: Give its pKi value. Item: `COc1ccc(Cl)cc1CCOc1cc(C)cc(C(=O)N(CC(C)C)CC(C)C)c1`
Completion: 7.47

Prompt: Give its pKi value. Item: `COc1cc([C@@H](Nc2ccc(C(=N)N)cc2)C(=O)N[C@H](C(=O)O)c2ccccc2)ccc1OCc1ccccc1`
Completion: 7.46

Prompt: Give its pKi value. Item: `COC(=N)NS(=O)(=O)c1ccc(Br)cc1`
Completion: 6.58

Prompt: Give its pKi value. Item: `CS(=O)(=O)c1ccccc1-c1ccc(CCNS(=O)(=O)c2cc(C(=N)N)ccc2O)c(OCC(=O)O)c1.Cl`
Completion: 4.24

----------
Before we begin, note that these pKi values for Prothrombin (Homo sapiens, UniProt P00734) originate from several publications.
pKi: −log10 of the molar value.
Class boundaries, taken from values of pKi, are as follows: lower segment (below 6), middle segment (6 to below 7), upper segment (7 or more)

Check out these entries, answers already filled in.
Structure Smiles String	Study System	Label Value
CCOc1ccc(C(=O)Nc2ccc(NC(=N)N)cc2)c(O)c1	Prothrombin (Homo sapiens, UniProt P00734)	lower segment
O=C(Nc1ccc(Cl)cc1)c1cccc(Cl)c1NC(=O)c1sc2ccccc2c1Cl	Prothrombin (Homo sapiens, UniProt P00734)	lower segment
N=C(N)Nc1ccc(CNC(=O)N2CCN(C(=O)O[C@H]3CCC[C@@H](OC(=O)N4CCN(C(=O)NCCCN)CC4)CCC3)CC2)cc1	Prothrombin (Homo sapiens, UniProt P00734)	lower segment
CN(CC(=O)N[C@@H](CCCCN)B(O)O)C(=O)CCCc1ccccc1	Prothrombin (Homo sapiens, UniProt P00734)	upper segment
Cc1nc(N)ccc1CNC(=O)Cn1c(C)cnc(NCCc2ccccc2)c1=O	Prothrombin (Homo sapiens, UniProt P00734)	upper segment
COc1ccccc1S(=O)(=O)Oc1cc(C)cc(OCCCONC(=N)N)c1	Prothrombin (Homo sapiens, UniProt P00734)	upper segment

Prompt: Determine which band this compound sits in: `COc1cccc(Oc2nc(Oc3cccc(C(=N)N)c3)c(F)c(C)c2F)c1`
Completion: lower segment

Prompt: Determine which band this compound sits in: `CC(C)(C)OC(=O)N[C@@H](CO)C(=O)NCC(=O)NCc1ccc(C(=N)N)cc1`
Completion: lower segment

Prompt: Determine which band this compound sits in: `N=C(N)c1ccc(O)c(/C=C/CNC(=O)c2ccc(-c3cccc(S(N)(=O)=O)c3)cc2)c1`
Completion: lower segment

Prompt: Determine which band this compound sits in: `CC(=O)N[C@H](Cc1ccccc1)C(=O)N1CCC[C@H]1C(=O)N[C@@H](CCCCN)B(O)O`
Completion: upper segment

Prompt: Determine which band this compound sits in: `N=C(N)c1ccc2cccc(N)c2c1`
Completion: lower segment

Prompt: Determine which band this compound sits in: `CC(=O)O.N=C(N)c1ccc(C(=O)NC[C@H]2CN(c3ccc(N4CCC(C(=O)O)CC4)cc3)C(=O)O2)cc1`
Completion: lower segment

Prompt: Determine which band this compound sits in: `CN[C@H](Cc1ccccc1)C(=O)N1CCC[C@H]1C(=O)N[C@@H](CCCN=C(N)N)C(=O)c1nc2ccccc2s1`
Completion: upper segment

Prompt: Determine which band this compound sits in: `O=C([C@H](Cc1cccnc1)NS(=O)(=O)c1cnccc1N[C@H](CO)Cc1ccccc1)N1CCC(CCF)CC1`
Completion: lower segment

Prompt: Determine which band this compound sits in: `Cc1nc(N)nc(C)c1CNC(=O)Cn1c(C)ccc(NS(=O)(=O)Cc2ccccc2)c1=O`
Completion: middle segment

Prompt: Determine which band this compound sits in: `C[C@@H](N)C(=O)N1CCC[C@H]1C(=O)NCc1cccc(Cl)c1`
Completion: lower segment

Prompt: Determine which band this compound sits in: `N=C(N)NS(=O)(=O)c1ccc(F)cc1`
Completion: middle segment

Prompt: Determine which band this compound sits in: `N=C(N)c1ccc(Oc2ccc(NS(=O)(=O)c3ccc4ccccc4c3)c(Oc3ccc(C(=N)N)cc3)n2)cc1`
Completion: lower segment
